- Assay Name: Drug absorption experiment in SD rats, intravenous administration
- Format: in vivo, SD rats (Sprague Dawley rats)
- Protocol Conditions: both sexes, Sprague-Dawley, rat, plasma, iv, 3 mg/kg, dosage 3.0 mg/kg, elimination half-life

Compound | half-life
C=CC(=O)Nc1cc(Nc2nccc(-c3cn(C)c4ccccc34)n2)c(OC(C)C)nc1N(C)CCN(C)C [Comparative Example 1, reference compound] | 2.72 h

###

- Assay Name: Drug absorption experiment in SD rats, intravenous administration
- Assay type: in vivo, SD rats (Sprague Dawley rats)
- Protocol Conditions: both sexes, Sprague-Dawley, rat, plasma, iv, 4 mg/kg, dosage 4.0 mg/kg, plasma, read-out: Cmax

Compound | Cmax / ng/mL
C=CC(=O)Nc1cc(Nc2ncc(Cl)c(-c3cn(C)c4ccccc34)n2)c(OC(C)C)nc1N(C)CCN(C)C [Comparative Example 2, reference compound] | 630

###

- Assay Name: Drug absorption experiment in SD rats, intragastric administration (incl. absolute bioavailability)
- Format: in vivo, SD rats (Sprague Dawley rats)
- Protocol Conditions: both sexes, Sprague-Dawley, rat, plasma, po, 6 mg/kg, intragastric 6 mg/kg vs intravenous 3.0 mg/kg, from AUC0-t after dosage calibration, read-out: F (absolute bioavailability)
Measured Property: bioavailability (%)

Molecule | Quantitative Result
C=CC(=O)Nc1cc(Nc2nccc(-c3cn(C)c4ccccc34)n2)c(OC(C)C)nc1N(C)CCN(C)C [Comparative Example 1, reference compound] | 8.9

###

- Assay Name: Drug absorption experiment in SD rats, intravenous administration
- Type: in vivo, SD rats (Sprague Dawley rats)
- Protocol Conditions: both sexes, Sprague-Dawley, rat, plasma, iv, 2.5 mg/kg, dosage 2.5 mg/kg, elimination half-life
Measured Property: half-life (h)

Compound | Quantitative Result
C=CC(=O)Nc1cc(Nc2nccc(-c3cn(C)c4ccccc34)n2)c(OCC(F)(F)F)nc1N(C)CCN(C)C [Form I] | 4.73

###

- Assay Name: Drug absorption experiment in SD rats, intravenous administration
- Assay type: in vivo, SD rats (Sprague Dawley rats)
- Protocol Conditions: both sexes, Sprague-Dawley, rat, plasma, iv, 3 mg/kg, dosage 3.0 mg/kg, plasma, read-out: Cmax
Measured Property: Cmax (ng/mL)

Molecule | Measured Property | Quantitative Result
C=CC(=O)Nc1cc(Nc2nccc(-c3cn(C)c4ccccc34)n2)c(OC(C)C)nc1N(C)CCN(C)C [Comparative Example 1, reference compound] | Cmax | 328

###

- Assay Name: Drug absorption experiment in SD rats, intragastric administration (incl. absolute bioavailability)
- Type: in vivo, SD rats (Sprague Dawley rats)
- Protocol Conditions: both sexes, Sprague-Dawley, rat, plasma, po, 10 mg/kg, intragastric, dosage 10 mg/kg, plasma, read-out: AUC0-t

Compound | AUC(0-t) (ng·h/mL)
C=CC(=O)Nc1cc(Nc2nccc(-c3cn(C)c4ccccc34)n2)c(OCC(F)(F)F)nc1N(C)CCN(C)C [Form I] | 613

###

- Assay Name: Drug absorption experiment in SD rats, intravenous administration
- Type: in vivo, SD rats (Sprague Dawley rats)
- Protocol Conditions: both sexes, Sprague-Dawley, rat, plasma, iv, 3 mg/kg, dosage 3.0 mg/kg, plasma, read-out: AUC0-t

Compound | Result Units | AUC(0-t)
C=CC(=O)Nc1cc(Nc2nccc(-c3cn(C)c4ccccc34)n2)c(OC(C)C)nc1N(C)CCN(C)C [Comparative Example 1, reference compound] | ng·h/mL | 438
